Tested on: T1, rat PTH-1R (rat PTHR endogenously expressed on UMR-106 rat osteosarcoma cells) (rat, UniProt P25961 27-591)
T1 sequence (looked up): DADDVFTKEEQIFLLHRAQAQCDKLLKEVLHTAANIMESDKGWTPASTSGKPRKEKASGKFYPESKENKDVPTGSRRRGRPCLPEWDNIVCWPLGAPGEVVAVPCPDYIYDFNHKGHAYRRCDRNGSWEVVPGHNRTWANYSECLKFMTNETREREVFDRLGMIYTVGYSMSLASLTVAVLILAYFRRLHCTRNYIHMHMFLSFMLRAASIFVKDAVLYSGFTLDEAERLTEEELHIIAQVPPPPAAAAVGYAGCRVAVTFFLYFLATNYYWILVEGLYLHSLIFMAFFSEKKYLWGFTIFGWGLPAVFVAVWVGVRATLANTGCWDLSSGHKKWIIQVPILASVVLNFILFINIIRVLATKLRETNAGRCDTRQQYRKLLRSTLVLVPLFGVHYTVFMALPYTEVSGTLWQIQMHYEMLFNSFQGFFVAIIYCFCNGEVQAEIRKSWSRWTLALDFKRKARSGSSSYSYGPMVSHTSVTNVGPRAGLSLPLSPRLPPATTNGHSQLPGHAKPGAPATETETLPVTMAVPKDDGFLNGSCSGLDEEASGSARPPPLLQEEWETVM
Test summary: cell-based or functional assay
Where no end group is shown, it is not given here. [ ]: non-standard residue; d: D form. Bip(2'-Et-4'-OMe) = CCc1cc(OC)ccc1-c1ccc(C[C@H](N)C(=O)O)cc1; Arg(NO2) = N=C(NCCC[C@H](N)C(=O)O)N[N+](=O)[O-]; αMePhe(2,6-F2) = C[C@](N)(Cc1c(F)cccc1F)C(=O)O; αMePhe(2-F) = C[C@](N)(Cc1ccccc1F)C(=O)O; hhPhe = N[C@@H](CCCc1ccccc1)C(=O)O; hArg = N=C(N)NCCCC[C@H](N)C(=O)O; hCit = NC(=O)NCCCC[C@H](N)C(=O)O; Cit = NC(=O)NCCC[C@H](N)C(=O)O; Nle = CCCC[C@H](N)C(=O)O; Ac5c = NC1(C(=O)O)CCCC1; Ac3c = NC1(C(=O)O)CC1; Aib = CC(C)(N)C(=O)O
Reported cAMP released with respect to control, 10 nM peptide, UMR-106 cells values follow for various binders

Consider the worked cases shown below.
{"Binder": "[Aib]V[Aib]EIQ[αMePhe(2,6-F2)][Nle]HQ[hArg][Aib][Cit][αMePhe(2-F)] [Seq. ID. 132]", "Result": "82 percent of control"}
{"Binder": "[Ac5c]V[Aib]EIQ[αMePhe(2-F)][Nle]HQ[hCit][Aib][αMePhe(2,6-F2)][αMePhe(2-F)] [Seq. ID. 444]", "Result": "67 percent of control"}
{"Binder": "[Aib]V[Aib]EIQ[αMePhe(2-F)][Nle]HQ[αMePhe(2,6-F2)]A[Arg(NO2)][αMePhe(2-F)] [Seq. ID. 521]", "Result": "51 percent of control"}

Prompt: Recorded cAMP released with respect to control, 10 nM peptide, UMR-106 cells for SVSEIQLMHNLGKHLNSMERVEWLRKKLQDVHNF [PTH (1-34)] , please?
Completion: 97 percent of control

Prompt: Request the reported cAMP released with respect to control, 10 nM peptide, UMR-106 cells associated with [Ac3c]V[Ac3c]EIQLMHQ[hArg]AK[Bip(2'-Et-4'-OMe)][hhPhe] [Seq. ID. 609]
Completion: 101 percent of control
